Quick reference for AC50 among some compounds
- testedSystem: UniProt:A0A7N9DBT9
- Sequence (A0A7N9DBT9 entry or part of it): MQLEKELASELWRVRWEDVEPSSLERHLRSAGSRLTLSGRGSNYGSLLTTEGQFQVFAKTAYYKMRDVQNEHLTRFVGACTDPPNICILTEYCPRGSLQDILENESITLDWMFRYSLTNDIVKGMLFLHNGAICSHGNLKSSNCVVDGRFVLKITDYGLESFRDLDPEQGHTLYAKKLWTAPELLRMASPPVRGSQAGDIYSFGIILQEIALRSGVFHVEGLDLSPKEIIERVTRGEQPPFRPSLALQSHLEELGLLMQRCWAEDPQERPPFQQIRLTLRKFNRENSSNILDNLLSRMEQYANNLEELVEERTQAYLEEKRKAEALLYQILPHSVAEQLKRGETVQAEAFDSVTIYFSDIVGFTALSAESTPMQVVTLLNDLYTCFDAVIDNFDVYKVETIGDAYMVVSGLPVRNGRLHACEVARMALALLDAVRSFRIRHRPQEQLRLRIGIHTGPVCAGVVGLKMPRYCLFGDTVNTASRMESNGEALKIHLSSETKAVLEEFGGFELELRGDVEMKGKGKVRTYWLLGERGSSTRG
- protocolSummary: Cellular cGMP production assay, monkey NPR1 expressing CHO-K1 cells (CisBio HTRF)
- Format: cell-based
- runConditions: cGMP production, monkey NPR1 CHO-K1 cells, 30 min at 37° C., 12-point dose-response from 30 μM; read-out: Monkey NPR1 AC50
propertyMeasured: AC50

INSERT INTO assay_data (entrysmiles, propertymeasured, result) VALUES
  ('CC[C@@H](Nc1nc2c(c(N[C@@H](CN3CCCC(C)(C)C3)c3cnn(C)c3)n1)C[C@H](c1ccccc1)CC2)[C@H]1CC[C@H](C(=O)O)CC1', 'AC50', '173 nM'),
  ('CC[C@@H](Nc1nc2c(c(N[C@@H](CN3CCCCC3)c3cnn(C)c3)n1)C[C@H](c1ccccc1)CC2)[C@H]1CC[C@H](C(=O)O)CC1', 'AC50', '196 nM'),
  ('CC[C@H]([C@H]1CC[C@H](C(=O)O)CC1)N(C)c1nc2c(c(N[C@@H](CN3CCC(C)CC3)c3cnn(C)c3)n1)C[C@H](c1ccccc1)CC2', 'AC50', '900 nM'),
  ('CC[C@H]([C@H]1CC[C@H](C(=O)O)CC1)N(C)c1nc2c(c(N[C@@H](CN3CCC[C@H](CF)C3)c3cnn(C)c3)n1)C[C@H](c1ccccc1)CC2', 'AC50', '235 nM'),
  ('CC[C@H]([C@H]1CC[C@H](C(=O)O)CC1)N(C)c1nc2c(c(N[C@@H](CN3CCCCC3)c3cnn(CC4CC4)c3)n1)C[C@H](c1ccccc1)CC2', 'AC50', '671 nM'),
  ('CC[C@@H](Nc1nc2c(c(N[C@@H](CN3CCCCC3)c3cnc(C)s3)n1)C[C@H](c1ccccc1)CC2)[C@H]1CC[C@H](C(=O)O)CC1', 'AC50', '378 nM');
